Where these numbers come from: patent US20210403601A1

EXPERIMENTAL_SYSTEM: T1, Taq DNA polymerase (Thermus aquaticus, UniProt P19821 1-832)
T1 construct: also called Taq enzyme; Taq DNA enzyme
T1 sequence (P19821 whole entry): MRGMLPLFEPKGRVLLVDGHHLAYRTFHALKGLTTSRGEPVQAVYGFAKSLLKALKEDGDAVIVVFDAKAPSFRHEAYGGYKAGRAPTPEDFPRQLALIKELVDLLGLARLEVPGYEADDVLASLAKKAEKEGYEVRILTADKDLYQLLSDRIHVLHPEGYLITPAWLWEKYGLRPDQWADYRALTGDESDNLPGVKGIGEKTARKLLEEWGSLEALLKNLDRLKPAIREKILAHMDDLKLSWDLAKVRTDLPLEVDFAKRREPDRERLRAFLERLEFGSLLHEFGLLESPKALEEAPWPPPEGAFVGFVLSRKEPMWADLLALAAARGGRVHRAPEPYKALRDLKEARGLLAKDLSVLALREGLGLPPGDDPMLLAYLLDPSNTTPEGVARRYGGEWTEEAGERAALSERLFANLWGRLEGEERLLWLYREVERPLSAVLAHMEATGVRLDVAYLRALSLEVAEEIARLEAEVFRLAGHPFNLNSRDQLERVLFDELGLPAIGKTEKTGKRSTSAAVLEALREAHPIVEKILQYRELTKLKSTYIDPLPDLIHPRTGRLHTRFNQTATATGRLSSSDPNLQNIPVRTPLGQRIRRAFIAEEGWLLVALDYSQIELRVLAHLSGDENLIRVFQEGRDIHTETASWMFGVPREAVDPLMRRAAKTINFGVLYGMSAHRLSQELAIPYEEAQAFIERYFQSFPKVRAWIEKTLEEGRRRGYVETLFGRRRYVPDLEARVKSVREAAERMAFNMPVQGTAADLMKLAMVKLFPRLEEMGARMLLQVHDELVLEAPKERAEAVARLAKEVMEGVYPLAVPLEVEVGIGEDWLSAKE
MEASUREMENT_PROTOCOL: AMC sensor, antibody immobilised
Listed next: entries and their corresponding kon.
State the answer as a number, implicitly in M⁻¹ s⁻¹.

BINDER | kon (M⁻¹ s⁻¹)
Mutation 1-42 (antibody, V domains shown, Mutation 1 background; CDRs built) VH: QVQLQQPGAELVKPGASVRLSCQTSVETFSTYYIYWVKQRPGEGLEWIGGINPTSNPVFNEKFKSKATLTVDTSSSTAYMQLSSLTSVDSAVYYCTRSLLRRGYYFDYWGQGTALTVSS VL: DIQMTQTTSSLSASLGDRVTISCRASQDIQNYVNWYQQKPDGTIKLLIYYTSRLQSGLPSRFSGSGSGTDYSLTIANLEQEDIATYFCQQDDTLPLTFGAGTKVELKR | 46700

Proceeding to the next binder to report its kon.
Input Mutation 1 (antibody, V domains shown, also called mutation 1 antibody) VH: QVQLQQPGAELVKPGASVRLSCQTSVDTFSTYYIYWVKQRPGEGLEWIGGVNPTSNPVFNEKFKSKATLTVDTSSSTAYMQLSSLTSVDSAVYYCTRSILRRGYYFDYWGQGTALTVSS VL: DIQMTQTTSSLSASLGDRVTISCRASQDIQNYVNWYQQKPDGTIKLLIYYTSRLQSGIPSRFSGSGSGTDYSLTIANLEQEDIATYFCQQDDTIPVTFGAGTKVELKR . Output kon: 98300
